Below: a set of entries, each annotated with reported Mold Resistance Average Rating, T. viride.
Tested on: T. viride
PROCEDURE SUMMARY: Mold resistance of treated wood stakes (ASTM D4445-91), T. viride
Format: cell-based, Trichoderma viride ATCC 20476
PROTOCOL CONDITIONS: Example 2; dip-treated unseasoned southern yellow pine, 4 weeks; scale 0-5 (5 = 100% coverage)
MEASURE NAME: Mold Resistance Average Rating, T. viride

COMPOUND	TEST TARGET	REPORTED VALUE
c1ccc2[nH]c(-c3cscn3)nc2c1 [Sample 46, Thiabendazole]	T. viride	0.0
CCC(=O)[O-].CCC(=O)[O-].[Ca+2] [Sample 17, Calcium propionate]	T. viride	4.6
Clc1ccccc1C(c1ccccc1)(c1ccccc1)n1ccnc1	T. viride	3.7
O=C[O-].[Na+] [Sample 27, Sodium formate]	T. viride	4.0
O=C([O-])c1ccccc1.[Na+] [Sample 15, Sodium benzoate]	T. viride	0.4
